- Tested on: mouse apolipoprotein B mRNA
- Assay procedure: Inhibition of mouse apolipoprotein B mRNA levels in primary mouse hepatocytes, real-time PCR
- Type: cell-based
- Condition context: Table 3, 150 nM, averages from two experiments
In the oligonucleotide strings, read from the 5' end, every base follows the letter of its sugar. An asterisk marks phosphorothioate; unmarked linkages are phosphodiester. Other units and linkages are bracketed, terminal groups are in braces. A string of capitals states the bases alone. e = 2'-O-(2-methoxyethyl) (MOE); [5mC] = 5-methylcytosine; d = 2'-deoxy (DNA)
Quantity kind: % INHIB (%)
Use % as the unit, but write only the number.

{"columns": ["Substance", "Unit info", "% INHIB"],
 "data": [
  ["147759 (eA*eG*eG*eT*eG*dA*dG*dG*dA*dA*dG*dT*dT*dG*dG*eA*eA*eT*eT*e[5mC]; antisense) [compound 147759]", "%", 19],
  ["147770 (eG*eT*eG*eT*eT*dG*dA*dA*dT*d[5mC]*d[5mC]*d[5mC]*dT*dT*dG*eA*eA*eA*eT*e[5mC]; antisense) [compound 147770]", "%", 67],
  ["147761 (eG*eT*eT*e[5mC]*eA*dT*dG*dG*dA*dT*dT*d[5mC]*d[5mC]*dT*dT*e[5mC]*eA*eG*eG*eA; antisense) [compound 147761]", "%", 45],
  ["147769 (e[5mC]*eA*eT*eG*e[5mC]*d[5mC]*dT*dG*dG*dA*dA*dG*d[5mC]*d[5mC]*dA*eG*eT*eG*eT*e[5mC]) [compound 147769]", "%", 89],
  ["147778 (antisense eT*e[5mC]*eA*eG*eA*dT*dA*dT*dA*d[5mC]*dA*dT*dT*dG*dG*e[5mC]*eT*eT*e[5mC]*eA) [compound 147778]", "%", 14]
]}

Consider the record given below.
Qu. Can you share its % INHIB? I mean this substance: 147776 (antisense eG*e[5mC]*eT*eT*eG*dA*dA*dG*dT*dT*d[5mC]*dA*dT*dT*dG*eA*eG*eA*eA*eT) [compound 147776]
Ans. 92
